Values were extracted from PubChem BioAssay (NCI).

system: NCI-H522 lung; assay: NCI-60 one-dose screen, 48 h; details: 10 µM unless noted
Compounds without any hit were thinned out: in the full panel of roughly 83,000, 20% have a hit. Calls of active or inactive are those of the source. How the source made its calls: active means growth percent below 10; inactive means the rest.
Entry note: the call must match one of active, inactive

Past entries and their recorded results:
compound: O=C1C(Cl)=C(Nc2ccc(O)cc2)C(=O)N1Cc1ccc(Cl)cc1
experimental_target: NCI-H522 lung
category_label: inactive

compound: C=C1C(=O)O[C@H]2[C@H]1CC/C(COC(=O)NCc1cc[nH]c1)=C\CC[C@@]1(C)O[C@@H]21
experimental_target: NCI-H522 lung
category_label: active

Task: What was the test verdict on C=C1C(=O)O[C@H]2[C@H]1CC/C(COC(=O)CCSCCC(=O)OC/C1=C/CC[C@@]3(C)O[C@H]3[C@H]3OC(=O)C(=C)[C@@H]3CC1)=C\CC[C@@]1(C)O[C@@H]21 ?
Result: active

Task: What was the test verdict on Fc1cccc(CNc2c3ccccc3nc3ccccc23)c1F ?
Result: inactive

Task: What was the test verdict on C#CCn1cnc2c(Nc3cccc(NC(=O)C=C)c3)ncnc21 ?
Result: inactive

Task: What was the test verdict on CN(CCOc1ccc(C#N)cc1)CCOc1ccc(C#N)cc1 ?
Result: inactive

Task: What was the test verdict on CC1(C)CC[C@]2(c3nnc(-c4ccncc4)o3)CC[C@H]3C(=CC[C@H]4[C@@]3(C)CC[C@H]3C(C)(C)C(=O)CC[C@]43C)[C@@H]2C1 ?
Result: inactive

Task: What was the test verdict on CCN1CC(=O)N(/N=C2\C(=O)Nc3ccccc32)C1=S ?
Result: inactive

Task: What was the test verdict on CCc1nc2c(=O)[nH]cnc2o1 ?
Result: inactive

Task: What was the test verdict on O=C(CSc1nc(-c2ccccc2)[nH]c1S(=O)(=O)c1ccccc1)NC1CC1 ?
Result: inactive

Task: What was the test verdict on O=C(Cn1c(=O)sc2ccccc21)NNS(=O)(=O)c1ccccc1[N+](=O)[O-] ?
Result: inactive

Task: What was the test verdict on N#CC1=C(c2ccc(Cl)cc2)Nc2c(c(-c3ccc(Cl)cc3)nn2-c2ccccc2)C12C(=O)Nc1ccc(Cl)cc12 (centres undefined) ?
Result: inactive
